Assay: total protein half-life in vivo (active degradation + dilution); higher = more stable protein
Conditions: wild type E. coli NCM3722; growth: C-lim chemostat; doubling time 6 h
Parameter Measured: total protein half-life in vivo (h)
Write it as a number; the unit h goes unstated.

[Q] # lookup: total protein half-life in vivo of MIPFNAPPVVGTELDYMQSAMGSGKLCGDGGFTRRCQQWLEQRFGSAKVLLTPSCTASLEMAALLLDIQPGDEVIMPSYTFVSTANAFVLRGAKIVFVDVRPDTMNIDETLIEAAITDKTRVIVPVHYAGVACEMDTIMALAKKHNLFVVEDAAQGVMSTYKGRALGTIGHIGCFSFHETKNYTAGGEGGATLINDKALIERAEIIREKGTNRSQFFRGQVDKYTWRDIGSSYLMSDLQAAYLWAQLEAADRINQQRLALWQNYYDALAPLAKAGRIELPSIPDGCVQNAHMFYIKLRDIDDRSALINFLKEAEIMAVFHYIPLHGCPAGEHFGEFHGEDRYTTKESERLLRLPLFYNLSPVNQRTVIATLLNYFS
[A] 6.6

[Q] # lookup: total protein half-life in vivo of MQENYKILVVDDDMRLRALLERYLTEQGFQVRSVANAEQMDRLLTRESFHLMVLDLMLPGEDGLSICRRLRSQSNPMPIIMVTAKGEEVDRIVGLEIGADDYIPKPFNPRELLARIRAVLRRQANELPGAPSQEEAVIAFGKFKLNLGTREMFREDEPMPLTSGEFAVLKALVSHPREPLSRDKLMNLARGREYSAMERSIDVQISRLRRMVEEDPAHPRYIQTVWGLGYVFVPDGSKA [P0AA16]
[A] 5.85

[Q] # lookup: total protein half-life in vivo of MTVTRPRAERGAFPPGTEHYGRSLLGAPLIWFPAPAASRESGLILAGTHGDENSSVVTLSCALRTLTPSLRRHHVVLCVNPDGCQLGLRANANGVDLNRNFPAANWKEGETVYRWNSAAEERDVVLLTGDKPGSEPETQALCQLIHRIQPAWVVSFHDPLACIEDPRHSELGEWLAQAFELPLVTSVGYETPGSFGSWCADLNLHCITAEFPPISSDEASEKYLFAMANLLRWHPKDAIRPS [P0ACV6]
[A] 4.71

[Q] # lookup: total protein half-life in vivo of MIPLQHGLILAAILFVLGLTGLVIRRNLLFMLIGLEIMINASALAFVVAGSYWGQTDGQVMYILAISLAAAEASIGLALLLQLHRRRQNLNIDSVSEMRG [P0AFE4]
[A] 7.48

[Q] # lookup: total protein half-life in vivo of MRTISYSEARQNLSATMMKAVEDHAPILITRQNGEACVLMSLEEYNSLEETAYLLRSPANARRLMDSIDSLKSGKGTEKDIIE
[A] 1.57

[Q] # lookup: total protein half-life in vivo of MLDQVCQLARNAGDAIMQVYDGTKPMDVVSKADNSPVTAADIAAHTVIMDGLRTLTPDVPVLSEEDPPGWEVRQHWQRYWLVDPLDGTKEFIKRNGEFTVNIALIDHGKPILGVVYAPVMNVMYSAAEGKAWKEECGVRKQIQVRDARPPLVVISRSHADAELKEYLQQLGEHQTTSIGSSLKFCLVAEGQAQLYPRFGPTNIWDTAAGHAVAAAAGAHVHDWQGKPLDYTPRESFLNPGFRVSIY
[A] 5.69

[Q] # lookup: total protein half-life in vivo of MTKQPPIAKADLQKTQGNRAPAAVKNSDVISFINQPSMKEQLAAALPRHMTAERMIRIATTEIRKVPALGNCDTMSFVSAIVQCSQLGLEPGSALGHAYLLPFGNKNEKSGKKNVQLIIGYRGMIDLARRSGQIASLSARVVREGDEFSFEFGLDEKLIHRPGENEDAPVTHVYAVARLKDGGTQFEVMTRKQIELVRSLSKAGNNGPWVTHWEEMAKKTAIRRLFKYLPVSIEIQRAVSMDEKEPLTIDPADSSVLTGEYSVIDNSEE
[A] 3.79

###

Experiment: total protein half-life in vivo (active degradation + dilution); higher = more stable protein
Details: wild type E. coli NCM3722; growth: P-lim chemostat; doubling time 12 h
Parameter Measured: total protein half-life in vivo (h)
Write it as a number; the unit h goes unstated.

[Q] # lookup: total protein half-life in vivo of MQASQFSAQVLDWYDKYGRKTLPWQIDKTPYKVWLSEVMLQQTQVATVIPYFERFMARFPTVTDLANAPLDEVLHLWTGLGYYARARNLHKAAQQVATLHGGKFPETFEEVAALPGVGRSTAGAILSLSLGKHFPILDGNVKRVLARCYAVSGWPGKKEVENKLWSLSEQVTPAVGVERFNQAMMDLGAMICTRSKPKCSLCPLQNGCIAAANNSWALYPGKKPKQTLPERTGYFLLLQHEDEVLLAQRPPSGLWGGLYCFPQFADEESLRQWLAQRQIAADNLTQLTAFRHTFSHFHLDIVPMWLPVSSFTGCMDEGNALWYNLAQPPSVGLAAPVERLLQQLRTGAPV
[A] 8.5

[Q] # lookup: total protein half-life in vivo of MQKDALNNVHITDEQVLMTPEQLKAAFPLSLQQEAQIADSRKSISDIIAGRDPRLLVVCGPCSIHDPETALEYARRFKALAAEVSDSLYLVMRVYFEKPRTTVGWKGLINDPHMDGSFDVEAGLQIARKLLLELVNMGLPLATEALDPNSPQYLGDLFSWSAIGARTTESQTHREMASGLSMPVGFKNGTDGSLATAINAMRAAAQPHRFVGINQAGQVALLQTQGNPDGHVILRGGKAPNYSPADVAQCEKEMEQAGLRPSLMVDCSHGNSNKDYRRQPAVAESVVAQIKDGNRSIIGLMIESNIHEGNQSSEQPRSEMKYGVSVTDACISWEMTDALLREIHQDLNGQLTARVA
[A] 3.5

[Q] # lookup: total protein half-life in vivo of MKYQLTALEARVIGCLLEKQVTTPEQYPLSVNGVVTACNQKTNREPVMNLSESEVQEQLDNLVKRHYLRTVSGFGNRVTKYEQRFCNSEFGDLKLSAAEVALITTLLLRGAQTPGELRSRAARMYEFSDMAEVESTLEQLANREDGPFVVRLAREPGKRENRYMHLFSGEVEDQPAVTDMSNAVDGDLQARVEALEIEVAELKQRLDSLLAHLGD
[A] 12.8

[Q] # lookup: total protein half-life in vivo of MTQYSSLLRGLAAGSAFLFLFAPTAFAAEQTVEAPSVDARAWILMDYASGKVLAEGNADEKLDPASLTKIMTSYVVGQALKADKIKLTDMVTVGKDAWATGNPALRGSSVMFLKPGDQVSVADLNKGVIIQSGNDACIALADYVAGSQESFIGLMNGYAKKLGLTNTTFQTVHGLDAPGQFSTARDMALLGKALIHDVPEEYAIHKEKEFTFNKIRQPNRNRLLWSSNLNVDGMKTGTTAGAGYNLVASATQGDMRLISVVLGAKTDRIRFNESEKLLTWGFRFFETVTPIKPDATFVTQRVWFGDKSEVNLGAGEAGSVTIPRGQLKNLKASYTLTEPQLTAPLKKGQVVGTIDFQLNGKSIEQRPLIVMENVEEGGFFGRVWDFVMMKFHQWFGSWFS
[A] 13.2

[Q] # lookup: total protein half-life in vivo of MDLIYFLIDFILHIDVHLAELVAEYGVWVYAILFLILFCETGLVVTPFLPGDSLLFVAGALASLETNDLNVHMMVVLMLIAAIVGDAVNYTIGRLFGEKLFSNPNSKIFRRSYLDKTHQFYEKHGGKTIILARFVPIVRTFAPFVAGMGHMSYRHFAAYNVIGALLWVLLFTYAGYFFGTIPMVQDNLKLLIVGIIVVSILPGVIEIIRHKRAAARAAK [P0ABP6]
[A] 7.57

[Q] # lookup: total protein half-life in vivo of MSEIVIRHAETRDYEAIRQIHAQPEVYCNTLQVPHPSDHMWQERLADRPGIKQLVACIDGDVVGHLTIDVQQRPRRSHVADFGICVDSRWKNRGVASALMREMIEMCDNWLRVDRIELTVFVDNAPAIKVYKKYGFEIEGTGKKYALRNGEYVDAYYMARVK
[A] 11.3

[Q] # lookup: total protein half-life in vivo of MTTPTFDTIEAQASYGIGLQVGQQLSESGLEGLLPEALVAGIADALEGKHPAVPVDVVHRALREIHERADAVRRQRFQAMAAEGVKYLEENAKKEGVNSTESGLQFRVINQGEGAIPARTDRVRVHYTGKLIDGTVFDSSVARGEPAEFPVNGVIPGWIEALTLMPVGSKWELTIPQELAYGERGAGASIPPFSTLVFEVELLEIL [P0A9L3]
[A] 11

[Q] # lookup: total protein half-life in vivo of MDHRLLEIIACPVCNGKLWYNQEKQELICKLDNLAFPLRDGIPVLLETEARVLTADESKS [P0AAZ7]
[A] 7.87

[Q] # lookup: total protein half-life in vivo of MAIILGIDPGSRVTGYGVIRQVGRQLSYLGSGCIRTKVDDLPSRLKLIYAGVTEIITQFQPDYFAIEQVFMAKNADSALKLGQARGVAIVAAVNQELPVFEYAARQVKQTVVGIGSAEKSQVQHMVRTLLKLPANPQADAADALAIAITHCHVSQNAMQMSESRLNLARGRLR [P0A814]
[A] 6.38

[Q] # lookup: total protein half-life in vivo of MTDLIQRPRRLRKSPALRAMFEETTLSLNDLVLPIFVEEEIDDYKAVEAMPGVMRIPEKHLAREIERIANAGIRSVMTFGISHHTDETGSDAWREDGLVARMSRICKQTVPEMIVMSDTCFCEYTSHGHCGVLCEHGVDNDATLENLGKQAVVAAAAGADFIAPSAAMDGQVQAIRQALDAAGFKDTAIMSYSTKFASSFYGPFREAAGSALKGDRKSYQMNPMNRREAIRESLLDEAQGADCLMVKPAGAYLDIVRELRERTELPIGAYQVSGEYAMIKFAALAGAIDEEKVVLESLGSIKRAGADLIFSYFALDLAEKKILR [P0ACB2]
[A] 11.9

[Q] # lookup: total protein half-life in vivo of MKAFDLHRMAFDKVPFDFLGEVALRSLYTFVLVFLFLKMTGRRGVRQMSLFEVLIILTLGSAAGDVAFYDDVPMVPVLIVFITLALLYRLVMWLMAHSEKLEDLLEGKPVVIIEDGELAWSKLNNSNMTEFEFFMELRLRGVEQLGQVRLAILETNGQISVYFFEDDKVKPGLLILPSDCTQRYKVVPESADYACIRCSEIIHMKAGEKQLCPRCANPEWTKASRAKRVT
[A] 12.1

All figures here come from the supplement of paper PMC11246515.
